- tested-target: human CD3 expressed on cells (Jurkat cells; human T-cells of PBMC) (human, UniProt P09693 23-182; P20963 22-164)
- Sequence (chain, as listed by the source, chain 1 of 4): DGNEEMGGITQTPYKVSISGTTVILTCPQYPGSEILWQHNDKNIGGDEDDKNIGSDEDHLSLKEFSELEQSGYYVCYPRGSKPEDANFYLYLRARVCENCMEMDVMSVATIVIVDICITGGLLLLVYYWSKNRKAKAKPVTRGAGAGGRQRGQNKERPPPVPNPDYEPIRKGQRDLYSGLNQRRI
- Sequence (chain, as listed by the source, chain 2 of 4): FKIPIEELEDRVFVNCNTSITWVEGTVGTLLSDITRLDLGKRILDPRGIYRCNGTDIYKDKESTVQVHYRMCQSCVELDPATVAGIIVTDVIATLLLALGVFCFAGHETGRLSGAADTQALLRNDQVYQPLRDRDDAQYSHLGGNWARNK
- Sequence (P09693 23-182, chain 3 of 4): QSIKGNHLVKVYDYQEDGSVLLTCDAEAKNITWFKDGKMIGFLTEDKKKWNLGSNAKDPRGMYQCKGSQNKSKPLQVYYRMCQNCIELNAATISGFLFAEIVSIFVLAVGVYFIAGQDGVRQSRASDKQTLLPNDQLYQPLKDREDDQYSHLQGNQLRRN
- Sequence (P20963 22-164, chain 4 of 4): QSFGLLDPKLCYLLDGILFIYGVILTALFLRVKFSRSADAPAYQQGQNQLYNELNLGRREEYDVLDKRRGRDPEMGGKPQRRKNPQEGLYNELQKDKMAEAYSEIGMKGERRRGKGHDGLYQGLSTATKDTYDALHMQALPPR
- protocol-details: cell-based or functional assay
Attribute: U937 Cytotoxicity Human T-cells
Report the value in pM with no unit label.

Challenge: Request the reported U937 Cytotoxicity Human T-cells associated with H2M2710N (antibody, V domains shown) VH: QVQLVESGGGVVQPGRSLRLSCAASGFTFRSFGMHWVRQAPGRGLEWVAMIYFDGKNKYYADSVRGRFTISRDNSKNTLYLEMSSLRAEDTAVYFCARGPGYNWLDPWGQGTLVTVSS VL: EIVMTQSPATLSVSPGERATLSCRASQSVSRNLAWYQQKPGQAPRLLIYGASTRATGVPARFSGSGSGTEFTLTISSLQSEDFAVFHCQQYNNRPLTFGGGTEVEIK
Response given: 3.97

Challenge: Similarly, H2M3543N (antibody, mouse IgG2, V domains shown) VH: EVQLVESGGGLVQPGRSLRLSCAASGFTFDDYTMHWVRQAPGKGLEWVSDISWNSGSIGYADSVKGRFTVSRDNAKNSLYLQMNSLRGEDTALYYCAKDMSGYAHYGYYGMDVWGQGTTVTVSS VL: DIQMTQSPSSLSASVGDRVTITCRASQSIRNYLNWYQQKPGKVPKLLIYAASSLQSGVPSRFSGSGSGTDFTLTISSLQPEDFATYYCQQSYSNPPITFGQGTRLEIK ?
Response given: 13.1

Challenge: Moving on to the next binder: H2M2706N (antibody, mouse IgG2, V domains shown) VH: QVQLVESGGGVVQPGRSLRLSCAASGFTFRSYAMHWVRQAPGKGLEWVAMVYYDGNNQYYADSVRGRFTISRDNSKNTLYLQMNSLRADDTAVYFCARGPGYNWLDPWGQGTLVTVSS VL: EIVMTQSPATLSVSPGERATLSCRASQSVSRNLAWYQQKPGQAPRLLIYGASTRATGIPARFSGSGSGTDFTLTISSLQSEDFAVYYCQQYNNWPLTFGGGTKVVIK
Response given: 7.91
